optical density reference
# TARGET ENTITY: T1, biotinylated goat anti-human kappa light chain
# T1 construct: Positive control of the ELISA
# TEST PROTOCOL: ELISA; positive control; note: test concentration or dose not given here
MEASURED PROPERTY: optical density (OD)

{"BINDER": "367_A09 (antibody, V domains shown, VH/VL only) VH: EVQLLESGGGLVQPGGSLRLSCAASGFTFDSYGMNWVRQAPGKGLEWVAGINYNGGYTSYADSVKGRFTISRDNSKNTLYLQMNSLRAEDTAVYYCARSATWHDTHLDYWGQGTLVTVSS VL: DIQMTQSPSSLSASVGDRVTITCRASQSILSYVNWYQQKPGKAPKLVIYAATSRHSGVPSRFSGSGSGTDFTLTISSLQPEDFATYYCQQSYDTPLTFGGGTKVEIK", "ASSAY VALUE": 3.45}
{"BINDER": "369_F12 (antibody, V domains shown, VH/VL only) VH: EVQLLESGGGLVQPGGSLRLSCAASGFTFSSYSMNWVRQAPGKGLEWVASINYNSGYKSYADSVKGRFTISRDNSKNTLYLQMNSLRAEDTAVYYCARSATWHDTHLDYWGQGTLVTVSS VL: DIQMTQSPSSLSASVGDRVTITCRASQSIISYLNWYQQKPGKAPKLLIYAVTSLASGVPSRFSGSGSGTDFTLTISSLQPEDFATYYCQQSYENPLTFGGGTKVEIK", "ASSAY VALUE": 3.6}
{"BINDER": "374_G04 (antibody, V domains shown, VH/VL only) VH: EVQLLESGGGLVQPGGSLRLSCAASGFTFSSYSMNWVRQAPGKGLEWVAGINYNGGYTGYADSVKGRFTISRDNSKNTLYLQMNSLRAEDTAVYYCARSANWHDTALDYWGQGTLVTVSS VL: DIQMTQSPSSLSASVGDRVTITCRASQSILTYLNWYQQKPGKAPKLVIYAATSLASGVPSRFSGSGSGTDFTLTISSLQPEDFATYYCQQSYDNPLTFGGGTKVEIK", "ASSAY VALUE": 3.02}
